Assay: Blood clearance in rat at 1 mg/kg, iv and 5 mg/kg, po
Assay type: ADME, organism-based
valueKind: clearance (mL/min/kg)
The reply should be a number in mL/min/kg, with the unit left off.

Endpoint output: clearance of CN[C@@H]1CCN(c2cc(NCC3CC3)nc(N)n2)C1 [ADRIFORANT] . Value?
29

====

Experiment: Volume of distribution in rat at 1 mg/kg, iv and 1 mg/kg, po
Format: ADME, organism-based
Conditions: in vivo
valueKind: Vd
Field: value (include unit after the number)

- smilesInput: "CN1C[C@@H]2CN(C(=O)c3nc4cc(F)c(F)cc4[nH]3)C[C@@H]2C1"
  obsValue: "4.1 L/kg"

// switching to the query compound
Looking for the measured Vd of CN1C[C@@H]2CN(C(=N)c3nc4cc(F)c(F)cc4[nH]3)C[C@@H]2C1 , can you help?
31 L/kg

====

Test: Plasma protein binding in human
Assay type: ADME, cell-free
Conditions: read-out: PPB (converted)
valueKind: fraction unbound
Number only, no unit.

Given CN[C@@H]1CCN(c2cc(NCC3CC3)nc(N)n2)C1 , state its recorded fraction unbound.
0.84

====

Assay: Plasma protein binding in rat at 1 mg/kg, iv and 5 mg/kg, po
Assay type: ADME, organism-based
Settings: read-out: PPB (converted)
valueKind: fraction unbound
Just the number, please.

Which fraction unbound value belongs to CN[C@@H]1CCN(c2cc(NCC3CC3)nc(N)n2)C1 ?
0.81

====

Tested on: Rattus norvegicus
Experiment: Toxicity in po dosed rat assessed as lymphoid depletion from spleen for 4 days
Type: organism-based
Conditions: in vivo, 96 h
valueKind: Activity

- smilesInput: "CN1C[C@@H]2CN(C(=O)c3nc4cc(F)c(F)cc4[nH]3)C[C@@H]2C1"
  valueKind: "Activity"
  obsValue: "Dose-dependent effect"
- smilesInput: "CNC1CN(c2cc(NCCC(C)(C)C)nc(N)n2)C1"
  valueKind: "Activity"
  obsValue: "Non-toxic"
- smilesInput: "CN1C[C@@H]2CN(C(=N)c3nc4cc(F)c(F)cc4[nH]3)C[C@@H]2C1"
  valueKind: "Activity"
  obsValue: "Dose-dependent effect"
- smilesInput: "CNC1CN(c2cc(NCC(C)(C)C)nc(N)n2)C1"
  valueKind: "Activity"
  obsValue: "Non-toxic"

====

Test: Blood clearance in rat at 1 mg/kg, iv and 1 mg/kg, po
Assay type: ADME, organism-based
valueKind: clearance (mL/min/kg)
Express your answer in mL/min/kg, writing the number without its unit.

Suppose we examine the compound CNC1CN(c2cc(NCC(C)(C)C)nc(N)n2)C1 ; what clearance value has been reported?
77

====

Test: Volume of distribution in dog blood at 3 mg/kg, iv
Format: ADME, organism-based, Canis lupus familiaris
Design: dose 3 mg/kg, route intravenous
valueKind: Vd

Bench note: what Vd did CNC1CN(c2cc(NCC(C)(C)C)nc(N)n2)C1 show?
48 L/kg

====

Experiment: Half life in rat at 1 mg/kg, iv and 5 mg/kg, po
Format: ADME, organism-based
Conditions: in vivo
valueKind: half-life (h)
The reply should contain only the number, in h.

Endpoint output: half-life of CN[C@@H]1CCN(c2cc(NCC3CC3)nc(N)n2)C1 . Value?
7

====

Target: Histamine H4 receptor (Homo sapiens, UniProt Q9H3N8)
Sequence (Q9H3N8 whole entry): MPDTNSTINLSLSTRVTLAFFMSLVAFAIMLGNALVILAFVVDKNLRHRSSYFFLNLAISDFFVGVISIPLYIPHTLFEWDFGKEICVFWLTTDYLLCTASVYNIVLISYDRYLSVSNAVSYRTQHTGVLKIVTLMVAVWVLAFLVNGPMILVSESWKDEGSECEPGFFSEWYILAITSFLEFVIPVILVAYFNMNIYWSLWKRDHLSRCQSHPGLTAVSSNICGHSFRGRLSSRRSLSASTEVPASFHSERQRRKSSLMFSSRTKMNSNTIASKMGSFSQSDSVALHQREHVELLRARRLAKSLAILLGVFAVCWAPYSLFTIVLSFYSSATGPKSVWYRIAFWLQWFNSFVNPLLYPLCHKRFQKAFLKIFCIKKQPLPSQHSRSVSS
Test: Displacement of [3H]-histamine from full length human H4R expressed in HEK293 cells
Assay type: cell-based
pKi: −log10 of the molar value.
Binary classification by pKi, with 8 as an inclusive lower bound for Met; all other cases are Not met.

- compound: "CN1C[C@@H]2CN(C(=O)c3nc4cc(F)c(F)cc4[nH]3)C[C@@H]2C1"
  assayedSystem: "Histamine H4 receptor (Homo sapiens, UniProt Q9H3N8)"
  labelValue: "Not met"
- compound: "CN[C@@H]1CCN(c2cc(NCC3CC3)nc(N)n2)C1 [ADRIFORANT]"
  assayedSystem: "Histamine H4 receptor (Homo sapiens, UniProt Q9H3N8)"
  labelValue: "Met"
- compound: "CNC1CN(c2cc(NCc3cccc(F)c3)nc(N)n2)C1"
  assayedSystem: "Histamine H4 receptor (Homo sapiens, UniProt Q9H3N8)"
  labelValue: "Not met"
- compound: "CNC1CN(c2cc(N)nc(NCC3CC3)n2)C1"
  assayedSystem: "Histamine H4 receptor (Homo sapiens, UniProt Q9H3N8)"
  labelValue: "Not met"
- compound: "CN1C[C@@H]2CN(C(=O)c3nc4cc(F)ccc4[nH]3)C[C@@H]2C1"
  assayedSystem: "Histamine H4 receptor (Homo sapiens, UniProt Q9H3N8)"
  labelValue: "Not met"

Now let's try a different one.
Confirm if pKi reported for the compound CNC1CN(c2cc(NCC(C)(C)C)nc(N)n2)C1 is 8 or above.
Met
